Quick reference for LDH release cytotoxicity among some compounds
# System: HepaRG
# Method description: LDH release cytotoxicity, % of total lysis control; higher = more cytotoxic
# Conditions: 31.6228 µM; 48 h
Give your result in % as a bare value.

Sample answers from the record:
{"Compound": "Cc1ccc(C)c(C)c1", "LDH release cytotoxicity / %": 0.161}
{"Compound": "Oc1ccccc1O", "LDH release cytotoxicity / %": -1.42}
{"Compound": "Oc1ccc2c(c1)-c1ccccc1C2 [3-Hydroxyfluorene]", "LDH release cytotoxicity / %": 0.438}
{"Compound": "Cc1ccc(N)cc1N", "LDH release cytotoxicity / %": -1.29}
{"Compound": "O=C(NS(=O)(=O)C=Cc1cccs1)c1ccc(F)cc1Br", "LDH release cytotoxicity / %": -0.73}

Kindly note the recorded LDH release cytotoxicity for COc1ccccc1N , which is 0.835

Kindly note the recorded LDH release cytotoxicity for ClC(Cl)c1ccccc1 [Benzal chloride] , which is 1.06

Kindly note the recorded LDH release cytotoxicity for CC(C)c1cccc(C(C)C)c1 , which is -1.16

Kindly note the recorded LDH release cytotoxicity for c1ccc2ccccc2c1 , which is 0.531

Kindly note the recorded LDH release cytotoxicity for C=CC(N)=O [Acrylamide] , which is -1.75

Kindly note the recorded LDH release cytotoxicity for CCCC1COC(Cn2cncn2)(c2ccc(Cl)cc2Cl)O1 (stereo unspecified) , which is 12.7

Kindly note the recorded LDH release cytotoxicity for C/C=C/C=C/C(=O)O , which is -0.323

Kindly note the recorded LDH release cytotoxicity for Clc1ccc(C(c2ccc(Cl)cc2)C(Cl)Cl)cc1 , which is -1.4

Kindly note the recorded LDH release cytotoxicity for CC(C)COC(=O)c1ccccc1C(=O)OCC(C)C [Diisobutyl phthalate] , which is -2.53

Kindly note the recorded LDH release cytotoxicity for CC(C)N1C(=O)N(c2ccccc2)CSC1=NC(C)(C)C , which is -2.33

Kindly note the recorded LDH release cytotoxicity for COC(=O)CCC(=O)OC [Dimethyl succinate] , which is -1.39

Source listed as the supplement of paper PMC7840683.
